Provenance of the data: PubChem BioAssay

biological target: Torsin-1A-interacting protein 1 (Homo sapiens) (UniProt Q5JTV8); assay: compound microarray binding of lysate hLAP1 – cell lysate, small-molecule microarray, COS7 lysate, 635/667 nm fluorescence, primary screen (AID 1116); settings: 635 nm fluorescence, higher = more signal
Sequence (Q5JTV8 whole entry, looked up): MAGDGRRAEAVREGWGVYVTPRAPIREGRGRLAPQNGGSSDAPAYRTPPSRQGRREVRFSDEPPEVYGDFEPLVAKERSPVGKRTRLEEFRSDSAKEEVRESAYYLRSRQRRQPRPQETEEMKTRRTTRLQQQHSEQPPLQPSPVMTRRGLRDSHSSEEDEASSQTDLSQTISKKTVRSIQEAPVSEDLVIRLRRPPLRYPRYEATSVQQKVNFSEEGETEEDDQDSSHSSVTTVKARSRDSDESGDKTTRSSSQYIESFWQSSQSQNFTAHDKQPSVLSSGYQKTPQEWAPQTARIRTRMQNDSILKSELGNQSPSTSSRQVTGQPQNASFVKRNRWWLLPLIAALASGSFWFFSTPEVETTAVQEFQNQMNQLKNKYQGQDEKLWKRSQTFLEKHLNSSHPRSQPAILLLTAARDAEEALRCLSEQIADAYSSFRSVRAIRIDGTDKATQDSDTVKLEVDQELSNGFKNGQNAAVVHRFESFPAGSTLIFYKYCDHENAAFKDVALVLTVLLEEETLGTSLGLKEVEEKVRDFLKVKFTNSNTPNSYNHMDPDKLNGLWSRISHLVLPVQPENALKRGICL
endpoint.name: composite z-score
Enter a number only.

# example entries with known answers
>>> assay_result("COCCn1c(C(=O)N(C)C)cc2c1C[C@H]1CN(C(=O)c3ccccc3)[C@@](Cc3ccc(OC)cc3)(C(=O)OC)[C@@H]21")
0.357
>>> assay_result("COCCOC(=O)N1C(=O)[C@@]2(c3ccccc31)[C@H](C(=O)N1CCN(c3ncccn3)CC1)[C@H]1C(=O)O[C@H](c3ccccc3)[C@H](c3ccccc3)N1[C@@H]2c1ccccc1OCCO")
0.405
>>> assay_result("COc1ccc(NN2C(C(O)c3ccc(I)cc3)C=CC3C(=O)N(C4CCCCC4)C(=O)C32)cc1 (configuration not stated)")
0.811
>>> assay_result("COC(=O)[C@@]1(Cc2ccc(OC)cc2)[C@H]2c3cc(C(=O)N4CCCC4)n(Cc4c(CO)[nH]cc(C)c4=O)c3C[C@H]2CN1C(=O)c1ccccc1")
2.32
>>> assay_result("Cc1ccc(S[C@]2(C(=O)NCc3ccccc3)CC(=O)N(Cc3ccccc3C(F)(F)F)[C@@H]2c2ccc(CO)cc2)cc1")
0.328
>>> assay_result("C=CCC(OC(C)=O)[C@@H]1[C@@H](N(Cc2cccc3ccccc23)C(=O)Cc2ccc(OC)cc2)c2cc(OCCCO)ccc2N1C(=O)Cc1ccc2ccccc2c1 (some centres not stated)")
-0.0234

Now for the compound whose composite z-score we want.
Entry COC(=O)[C@@]1(Cc2ccccc2)N=C(c2ccc(OCCCO)cc2)O[C@H]1c1ccccc1CN=[N+]=[N-] — recorded composite z-score = 0.757
